- ASSAY_COMMENT: activity coefficient (dimensionless); of the first substance listed, at infinite dilution; xn = mol fraction of the nth substance listed
- CONDITION_PARAMETERS: 328.15 K; 100 kPa; Liquid; Chromatography; x1 = 0
Reported activity coefficient maps to class as: class A: < 2; class B: ≥ 2 and < 4; class C: ≥ 4

Solved entries (count: 5):
| MOLECULE | CATEGORY_LABEL |
| --- | --- |
| C1CCOC1 [tetrahydrofuran] + CCCC[n+]1ccc(C#N)cc1.O=S(=O)([N-]S(=O)(=O)C(F)(F)F)C(F)(F)F | class A |
| CO [methanol] + CCCC[n+]1ccc(C#N)cc1.O=S(=O)([N-]S(=O)(=O)C(F)(F)F)C(F)(F)F | class A |
| CC1CCCCC1 [methylcyclohexane] + CCCC[n+]1ccc(C#N)cc1.O=S(=O)([N-]S(=O)(=O)C(F)(F)F)C(F)(F)F | class C |
| CCCCCCCCC [nonane] + CCCC[n+]1ccc(C#N)cc1.O=S(=O)([N-]S(=O)(=O)C(F)(F)F)C(F)(F)F | class C |
| C#CCCCCCC [1-octyne] + CCCC[n+]1ccc(C#N)cc1.O=S(=O)([N-]S(=O)(=O)C(F)(F)F)C(F)(F)F | class C |

Class for CCOC(C)=O [ethyl acetate] + CCCC[n+]1ccc(C#N)cc1.O=S(=O)([N-]S(=O)(=O)C(F)(F)F)C(F)(F)F ? class A

Class for c1ccncc1 [pyridine] + CCCC[n+]1ccc(C#N)cc1.O=S(=O)([N-]S(=O)(=O)C(F)(F)F)C(F)(F)F ? class A
